Data origin, for the record: patent EP3513780A1

Changes in microRNA Expression of hsa-miR-720 (linear fold-change) values by entry
Tested on: hsa-miR-720
Test: microRNA expression (qPCR) in NHEK: hsa-miR-720
Details: 24 hours, 0.1 mM (Vitamin B12 0.03 mM), vs Control group, normalized to RNU44, N=4, negative = decrease
parameter: Changes in microRNA Expression of hsa-miR-720 (linear fold-change) (fold)

compound	endpoint result
CC(C)(CO)[C@@H](O)C(=O)NCCCO	-2.21
Cc1ncc(CO)c(CO)c1O.Cl [Pyridoxine HCl]	-1.84
Nc1nc2ncc(CNc3ccc(C(=O)N[C@@H](CCC(=O)O)C(=O)O)cc3)nc2c(=O)[nH]1	-1.64
Cc1cc2nc3c(=O)[nH]c(=O)nc-3n(C[C@H](O)[C@H](O)[C@H](O)CO)c2cc1C	-1.93

---

System: TP63
Assay: Gene expression (qPCR) in NHEK: TP63
Details: 24 hours, 0.1 mM (Vitamin B12 0.03 mM), normalized to HPRT1, n.s. = not statistically significant
parameter: Linear Fold-Change Value, Each Group vs the Untreated Control: TP63 (fold)

compound	unit abbreviation	endpoint result
Nc1nc2ncc(CNc3ccc(C(=O)N[C@@H](CCC(=O)O)C(=O)O)cc3)nc2c(=O)[nH]1 [Folic acid]	fold	1.43
Cc1ncc(CO)c(CO)c1O.Cl [Pyridoxine HCl]	fold	1.55
CC(C)(CO)[C@@H](O)C(=O)NCCCO [D-Panthenol]	fold	1.54
Cc1cc2nc3c(=O)[nH]c(=O)nc-3n(C[C@H](O)[C@H](O)[C@H](O)CO)c2cc1C [Vitamin B2, riboflavin]	fold	1.34

---

System: KRT10
Experiment: Gene expression (qPCR) in NHEK: KRT10
Assay type: cell-based, human
Conditions: 24 hours, 0.1 mM (Vitamin B12 0.03 mM), normalized to HPRT1, n.s. = not statistically significant
parameter: Linear Fold-Change Value, Each Group vs the Untreated Control: KRT10 (fold)

molecule	endpoint result
CC(C)(CO)[C@@H](O)C(=O)NCCCO	-2.26
Cc1cc2nc3c(=O)[nH]c(=O)nc-3n(C[C@H](O)[C@H](O)[C@H](O)CO)c2cc1C	-2.50
Nc1nc2ncc(CNc3ccc(C(=O)N[C@@H](CCC(=O)O)C(=O)O)cc3)nc2c(=O)[nH]1	-1.73
Cc1ncc(CO)c(CO)c1O.Cl [Pyridoxine HCl]	-2.45

---

Tested on: KLK7
Assay: Gene expression (qPCR) in NHEK: KLK7
Assay type: cell-based, human
Settings: 24 hours, 0.1 mM (Vitamin B12 0.03 mM), normalized to HPRT1, n.s. = not statistically significant
parameter: Linear Fold-Change Value, Each Group vs the Untreated Control: KLK7

compound	target entity	endpoint result
NC(=O)c1cccnc1 [Niacinamide, nicotinamide]	KLK7	n.s.
Cc1ncc(CO)c(CO)c1O.Cl [Pyridoxine HCl]	KLK7	-1.44 fold
Nc1nc2ncc(CNc3ccc(C(=O)N[C@@H](CCC(=O)O)C(=O)O)cc3)nc2c(=O)[nH]1	KLK7	-1.41 fold
CC(C)(CO)[C@@H](O)C(=O)NCCCO	KLK7	-1.60 fold
Cc1cc2nc3c(=O)[nH]c(=O)nc-3n(C[C@H](O)[C@H](O)[C@H](O)CO)c2cc1C	KLK7	-2.03 fold
